Tested on: CP215
Assay: qHTS profiling for inhibitors of Plasmodium falciparum proliferation (AID 504749); further: nearly all actives have a fitted effect of over 60% in size; further: potency means the concentration at half of the fitted maximal effect
Conditions: P. falciparum in erythrocytes, SYBR Green DNA, 72 h; series mostly up to 28.7 µM
Records with an inconclusive call do not appear. Calls of active or inactive are those of the source. The call rests on the fitted dose curve; in most records, active means well fitted inhibition curve with a large enough effect; inconclusive means small, poorly fitted or top-dose-only effect; inactive means flat fitted curve, though single readings scatter.
measured_attribute: Potency

OCCOc1ccccc1	inactive
CN1CCN(C(=O)O[C@H]2c3nccnc3C(=O)N2c2ccc(Cl)cn2)CC1	inactive
O=c1[nH]c2ccccc2n1C1CCN(CCCC(c2ccc(F)cc2)c2ccc(F)cc2)CC1	13.5 µM (active)
CC(C)(C)CC(C)(C)c1ccc(O)cc1	inactive

Could you now look at the following compound, please?
Value of Potency reported for the compound CC[C@@H](CO)NC(=O)[C@@H]1C=C2c3cccc4[nH]cc(c34)C[C@H]2N(C)C1 is inactive

* * *

System: astro
Test: Drug repurposing screens with cells derived from glioblastoma tumor samples (AID 1345199); further: nearly all actives have a fitted effect of over 40% in size
Conditions: viability, ATP luminescence, 48 h; series mostly up to 45.9 µM
Results filed as inconclusive are left out. Activity calls are given as the source filed them. Calls come from the whole dose curve; as a rule, active = well fitted inhibition curve with a large enough effect; inconclusive = small, poorly fitted or top-dose-only effect; inactive = flat fitted curve, though single readings scatter.
Write down the outcome that applies. Available outcomes: active, inactive

Oc1ccccc1-c1ccccc1	inactive
Oc1ccc(Cl)cc1Cc1ccccc1	active
O=c1[nH]c2ccccc2n1C1CCN(CCCC(c2ccc(F)cc2)c2ccc(F)cc2)CC1	active
O=c1[nH]c2ccccc2n1CCCN1CCC(n2c(=O)[nH]c3cc(Cl)ccc32)CC1	inactive
Cn1c(CCCC(=O)O)nc2cc(N(CCCl)CCCl)ccc21	inactive

Exercise: Just curious, what result did CC(=O)[C@H]1CC[C@H]2[C@@H]3CC[C@H]4C[C@H](O)CC[C@]4(C)[C@H]3C(=O)C[C@]12C get here?
Key: inactive

Exercise: Hi, do you know how O=C(NC(O)C(Cl)(Cl)Cl)NC(O)C(Cl)(Cl)Cl (stereo not drawn) came out in this test?
Key: inactive

Exercise: Dear colleague, could you share the recorded outcome for CC(=O)Nc1cc([As](=O)(O)O)ccc1O when you have a moment?
Key: inactive

* * *

Molecular target: D(1A) dopamine receptor (Homo sapiens)
Experiment: HTS Assay for Allosteric Agonists of the Human D1 Dopamine Receptor: Primary Screen for Agonists (AID 488981); on activation: 0% is about no effect
Details: Inducible HEK293 T-REx D1 cells, calcium-flux fluorescence, 180 s kinetic; series mostly up to 41.8 µM
Inconclusive results are not listed. Calls of active or inactive are those of the source. Calls follow the shape of the dose curve; as a rule, active = well fitted activation curve with a large enough effect; inconclusive = small, poorly fitted or top-dose-only effect; inactive = flat fitted curve, though single readings scatter.
The reply should name one outcome from label 1 (active), label 0 (inactive)

Worked examples, 5 molecules total:
Cc1cc2c(C(C)C)c(O)c(O)c(C=O)c2c(O)c1-c1c(C)cc2c(C(C)C)c(O)c(O)c(C=O)c2c1O	label 1
CC(O)(CS(=O)(=O)c1ccc(F)cc1)C(=O)Nc1ccc(C#N)c(C(F)(F)F)c1 (centres undefined)	label 0
Cc1ncc(CNC(=O)N(CCCl)N=O)c(N)n1	label 0
CC(CCc1ccccc1)NC(C)C(O)c1ccc(O)cc1 (centres undefined)	label 0
CC(=O)[C@H]1CC[C@H]2[C@@H]3CC[C@H]4C[C@H](O)CC[C@]4(C)[C@H]3C(=O)C[C@]12C	label 0

Exercise: Per the records of this test, what outcome belongs to COC[C@H]1OC(=O)c2coc3c2[C@@]1(C)C1=C(C3=O)C2CCC(=O)[C@@]2(C)C[C@H]1OC(C)=O (some centres undefined) ?
Key: label 0

Exercise: Called result for C=C(C)[C@H]1Cc2c(ccc3c2O[C@@H]2COc4cc(OC)c(OC)cc4[C@@H]2C3=O)O1
Key: label 0

Exercise: Recorded test call requested for CC(=O)[C@H]1CC[C@H]2[C@@H]3CC[C@H]4C[C@](C)(O)CC[C@]4(C)[C@H]3CC[C@]12C
Key: label 0

Exercise: Identify the outcome logged in this assay for the molecule shown: CCCC(C)(COC(N)=O)COC(=O)NC(C)C (centres undefined)
Key: label 0
